# protocol-details: Competitive inhibition of yeast alpha-glucosidase using varying levels of p-nitrophenylglucopyranoside as substrate preincubated for 10 mins followed by substrate addition and measured after 20 mins by Lineweaver-burk plot analysis
# Parameters: species or system Saccharomyces cerevisiae
readout-kind: Ki (µM)
Dear colleague, please return just the value in µM, with no unit written.

Prompt line: For the compound shown here, `COc1ccc2[nH]c3c(c2c1)CCn1c(-c2ccccc2)nc(-c2ccc(Br)cc2)c1-3` , give the reported Ki.
Response line: 75
